The compounds listed here are annotated with their IC50.
Target: Cytochrome P450 2D6 (Homo sapiens)
Sequence (P10635 whole entry): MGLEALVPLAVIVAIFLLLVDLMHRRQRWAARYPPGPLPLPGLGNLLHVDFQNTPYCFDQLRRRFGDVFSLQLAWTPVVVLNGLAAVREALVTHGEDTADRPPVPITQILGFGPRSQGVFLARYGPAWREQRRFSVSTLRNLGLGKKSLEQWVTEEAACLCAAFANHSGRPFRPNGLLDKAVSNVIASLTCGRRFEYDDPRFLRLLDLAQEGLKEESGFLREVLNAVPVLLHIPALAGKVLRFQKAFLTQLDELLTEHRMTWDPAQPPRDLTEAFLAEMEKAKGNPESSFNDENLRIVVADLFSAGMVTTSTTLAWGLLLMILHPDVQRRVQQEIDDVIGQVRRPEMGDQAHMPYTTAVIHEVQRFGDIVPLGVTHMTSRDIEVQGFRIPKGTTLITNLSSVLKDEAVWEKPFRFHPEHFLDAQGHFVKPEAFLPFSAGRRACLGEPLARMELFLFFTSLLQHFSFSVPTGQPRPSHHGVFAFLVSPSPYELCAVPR

Sample records with IC50:
# Compound, Quantity Measured, Result
rows = [
    ("O=C(Nc1nc2cccc(C3CCC(NC(=O)C4(F)CC4)CC3)n2n1)C1CC1 (stereo not drawn)", "IC50", "> 100 µM"),
    ("O=C(Nc1nc2cccc([C@H]3CC[C@@H](NC(=O)[C@@H]4CC4(F)F)CC3)n2n1)C1CC1", "IC50", "> 100 µM"),
]

Next compound, IC50 to be filled in.
Item N#CCC(=O)N1CC2(CCC(c3cccc4nc(NC(=O)C5CC5)nn34)CC2)C1 has what recorded IC50?
> 100 µM

---

Biological target: Cytochrome P450 1A2 (Homo sapiens)
Sequence (P05177 whole entry): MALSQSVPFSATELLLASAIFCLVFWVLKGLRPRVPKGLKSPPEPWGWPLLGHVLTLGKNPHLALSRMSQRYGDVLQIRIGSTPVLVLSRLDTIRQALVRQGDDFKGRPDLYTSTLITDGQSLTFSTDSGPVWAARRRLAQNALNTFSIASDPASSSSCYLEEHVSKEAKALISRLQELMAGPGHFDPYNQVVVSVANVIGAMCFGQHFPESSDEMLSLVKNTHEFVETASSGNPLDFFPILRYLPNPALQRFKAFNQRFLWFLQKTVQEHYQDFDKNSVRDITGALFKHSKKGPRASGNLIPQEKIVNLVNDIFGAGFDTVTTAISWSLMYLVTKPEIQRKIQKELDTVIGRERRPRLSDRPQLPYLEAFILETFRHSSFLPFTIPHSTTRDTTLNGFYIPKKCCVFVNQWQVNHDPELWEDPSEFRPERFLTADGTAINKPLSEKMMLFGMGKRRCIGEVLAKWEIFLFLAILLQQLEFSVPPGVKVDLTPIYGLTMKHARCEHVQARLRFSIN
pIC50: −log10 of the molar value.
In this section, each of the molecules is paired with its reported pIC50.

// solved cases for pIC50 follow
# Molecule, Quantity Measured, Result
rows = [
    ("O=C(Nc1nc2cccc(C3CCC(NC(=O)C4(F)CC4)CC3)n2n1)C1CC1 (centres undefined)", "pIC50", "< 4.00"),
    ("O=C(Nc1nc2cccc(C3CCC4(CC3)CCN(C(=O)[C@@H]3CC3(F)F)C4)n2n1)C1CC1 (some centres undefined)", "pIC50", "< 4.00"),
    ("N#CCC(=O)N1CC2(CCC(c3cccc4nc(NC(=O)C5CC5)nn34)CC2)C1", "pIC50", "< 4.00"),
]

Lab note: next molecule to report on.
For O=C(Nc1nc2cccc([C@H]3CC[C@@H](NC(=O)[C@@H]4CC4(F)F)CC3)n2n1)C1CC1 , what is its reported pIC50?
5.09

---

Target: Cytochrome P450 3A4 (Homo sapiens)
Sequence (P08684 whole entry): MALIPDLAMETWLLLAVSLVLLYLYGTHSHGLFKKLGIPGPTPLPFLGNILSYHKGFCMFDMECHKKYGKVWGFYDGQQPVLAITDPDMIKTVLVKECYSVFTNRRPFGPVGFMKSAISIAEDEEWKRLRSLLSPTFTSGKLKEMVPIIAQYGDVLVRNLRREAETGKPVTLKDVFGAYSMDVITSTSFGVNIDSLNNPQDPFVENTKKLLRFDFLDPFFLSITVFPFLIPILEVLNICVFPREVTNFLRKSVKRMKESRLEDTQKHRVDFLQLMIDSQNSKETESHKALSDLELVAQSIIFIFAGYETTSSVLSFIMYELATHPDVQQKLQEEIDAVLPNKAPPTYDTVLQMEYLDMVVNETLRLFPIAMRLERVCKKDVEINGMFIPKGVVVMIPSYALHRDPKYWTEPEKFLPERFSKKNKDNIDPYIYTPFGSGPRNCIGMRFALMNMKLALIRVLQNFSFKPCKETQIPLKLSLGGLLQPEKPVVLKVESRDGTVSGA
Assay: Inhibition of CYP3A4 in human liver microsomes incubated in presence NADPH by LC-MS/MS analysis
The reader will find reported IC50 values listed item by item below.

Answered cases to consult:
# Molecule, Result
records = [
    ("O=C(Nc1nc2cccc([C@H]3CC[C@@H](NC(=O)[C@@H]4CC4(F)F)CC3)n2n1)C1CC1", "> 100 µM"),
    ("O=C(Nc1nc2cccc(C3CCC4(CC3)CCN(C(=O)[C@@H]3CC3(F)F)CC4)n2n1)C1CC1", "> 100 µM"),
]

So what IC50 did O=C(Nc1nc2cccc(C3CCC4(CC3)CCN(C(=O)[C@@H]3CC3(F)F)C4)n2n1)C1CC1 (stereo partly drawn) get with Cytochrome P450 3A4 (Homo sapiens)?
> 100 µM

---

Assay: Metabolic stability in rat hepatocytes assessed as intrinsic clearance at 1 uM incubated for 90 mins by LC/MS/MS analysis
Assay type: ADME, cell-based, Hepatocyte
Collected CLH values appear next to each entry.

Example entries begin here.
# Molecule, Quantity Measured, Result
rows = [
    ("O=C(Nc1nc2cccc(C3CCC4(CC3)CN(C(=O)[C@@H]3CC3(F)F)C4)n2n1)C1CC1", "CLH", "< 6.4 µL/min/mg"),
    ("O=C(Nc1nc2cccc([C@H]3CC[C@@H](NC(=O)[C@@H]4CC4(F)F)CC3)n2n1)C1CC1", "CLH", "< 10.8 µL/min/mg"),
    ("O=C(Nc1nc2cccc(C3CCC4(CC3)CCN(C(=O)[C@@H]3CC3(F)F)CC4)n2n1)C1CC1", "CLH", "< 6.4 µL/min/mg"),
    ("O=C(Nc1nc2cccc(-c3ccc(CN4CCS(=O)(=O)CC4)cc3)n2n1)C1CC1 [FILGOTINIB]", "CLH", "< 6.4 µL/min/mg"),
    ("N#CCC(=O)N1CC2(CCC(c3cccc4nc(NC(=O)C5CC5)nn34)CC2)C1", "CLH", "< 6.4 µL/min/mg"),
    ("O=C(Nc1nc2cccc(C3CCC4(CC3)CCN(C(=O)[C@@H]3CC3(F)F)C4)n2n1)C1CC1 (some centres not stated)", "CLH", "25.6 µL/min/mg"),
]

Would you mind telling me what CLH value was observed for O=C(Nc1nc2cccc(C3CCC(NC(=O)C4(F)CC4)CC3)n2n1)C1CC1 (configuration not stated) ?
< 6.4 µL/min/mg
